Ref: patent US9296732B2

# System: RCC4/VHL
# experiment summary: XTT cell viability assay, RCC4 with VHL-reintroduced (RCC4/VHL) versus RCC4, selectivity ratio
# Type: cell-based
# conditions: second TABLE 1 (Examples 39-55)
experimental readout: Ratio (IC50 RCC4 Proficient VHL)/IC50 RCC4 Deficient VHL)

molecule | result
Cc1oc(-c2ccc(C(=O)NCc3cccnc3)cc2)nc1CS(=O)(=O)C1CCN(C2CCCC2)CC1 [Example 54] | b (from 10 to ≦100)
Cc1oc(-c2ccc(C(=O)NCc3cccnc3)cc2)nc1CS(=O)(=O)[C@H]1CC[C@H](N)CC1 [Example 44] | b (from 10 to ≦100)
Cc1oc(-c2ccc(C(=O)NCc3cccnc3)cc2)nc1CS(=O)(=O)[C@H]1CC[C@H](N2CCCC2)CC1 [Example 45] | b (from 10 to ≦100)

###

melting point values, listed per item
experimental readout: melting point

substance smiles | experimental readout | result
Cc1ccc(S(=O)(=O)Cc2nc(-c3ccc(C(=O)N(C)Cc4cccnc4)cc3)oc2C)cc1 | melting point | 77 to 80 °C
Cc1oc(-c2ccc(C(=O)NCc3cccnc3)cc2)nc1CS(=O)(=O)c1ccc(Br)cc1 | melting point | 224 to 227 °C
Cc1oc(-c2ccc(C(=O)NCc3cccnc3)cc2)nc1CS(=O)(=O)c1ccc(N2CCN(C)CC2)cc1 | melting point | 210 to 215 °C
COc1ccc(S(=O)(=O)Cc2nc(-c3ccc(C(=O)NCc4cccnc4)cc3)oc2C)cc1 | melting point | 189 to 191 °C

###

# Lookup of reported melting point keyed by entry
experimental readout: melting point

substance smiles | experimental readout | result
Cc1ccc(S(=O)(=O)Cc2nc(-c3ccc(C(=O)NCCc4cccnc4)cc3)oc2C)cc1 | melting point | 207 to 208 °C
O=C(Nc1cccnc1)c1ccc(CNS(=O)(=O)c2ccc(Cl)nc2)cc1 | melting point | 226 to 228 °C
Cc1ccc(S(=O)(=O)Cc2csc(-c3ccc(C(=O)NCc4cccnc4)cc3)n2)cc1 | melting point | 178 to 181 °C
Cc1ccc(S(=O)(=O)Cc2nc(-c3ccc(C(=O)NCc4nccn4C)cc3)oc2C)cc1 | melting point | 190 to 192 °C
Cc1ccc(S(=O)(=O)Cc2nc(-c3ccc(C(=O)NCc4ccncc4)cc3)oc2C)cc1 | melting point | 169 to 172 °C
Cc1ccc(S(=O)(=O)Cc2nc(-c3ccc(C(=O)NCc4ccccn4)cc3)oc2C)cc1 | melting point | 154 to 155 °C
COc1cccc(S(=O)(=O)Cc2nc(-c3ccc(C(=O)NCc4cccnc4)cc3)oc2C)c1 | melting point | 143 to 145 °C
Cc1oc(-c2ccc(C(=O)NCc3cccnc3)cc2)nc1CS(=O)(=O)c1ccc(N2CCOCC2)cc1 | melting point | 208 to 210 °C

###

experimental readout: melting point

substance smiles | result
Cc1cccc(S(=O)(=O)Cc2nc(-c3ccc(C(=O)NCc4cccnc4)cc3)oc2C)c1 | 179 to 181 °C
Cc1ccc(S(=O)(=O)Cc2nc(-c3ccc(C(=O)Nc4cccnc4)cc3)oc2C)cc1 | 248 to 250 °C
O=C(Nc1cccnc1)c1ccc(CNS(=O)(=O)c2nnc[nH]2)cc1 | 266 to 269 °C
Cc1ncc(S(=O)(=O)NCc2ccc(C(=O)Nc3cccnc3)cc2)n1C | 238 to 240 °C
Cc1cc(C)cc(S(=O)(=O)Cc2nc(-c3ccc(C(=O)NCc4cccnc4)cc3)oc2C)c1 | 188 to 190 °C
Cc1ccc(S(=O)(=O)Cc2nc(-c3ccc(C(=O)N(C)c4cccnc4)cc3)oc2C)cc1 | 195 to 197 °C
COc1ccc(S(=O)(=O)Cc2nc(-c3ccc(C(=O)NCc4cccnc4)cc3)oc2C)cc1OC | 104 to 108 °C
Cc1oc(-c2ccc(C(=O)NCc3ccccc3)cc2)nc1CS(=O)(=O)c1ccc(Br)cc1 | 234 to 237 °C
Cc1oc(-c2ccc(C(=O)NCc3cccnc3)cc2)nc1CS(=O)(=O)c1ccc(F)cc1 | 218 to 220 °C
Cc1ccc(S(=O)(=O)Cc2nc(-c3ccc(C(=O)NCc4cncn4C)cc3)oc2C)cc1 | 240 to 242 °C
Cc1oc(-c2ccc(C(=O)NCc3cccnc3)cc2)nc1CS(=O)(=O)c1ccc(C(C)(C)C)cc1 | 177 to 180 °C
Cc1oc(-c2ccc(C(=O)NCc3cccnc3)cc2)nc1CS(=O)(=O)c1ccc(Cl)cc1 | 220 to 222 °C
Cc1oc(-c2ccc(C(=O)NCc3cccnc3)cc2)nc1CS(=O)(=O)c1ccccc1 | 196 to 198 °C
Cc1ccc(S(=O)(=O)Cc2nc(-c3ccc(C(=O)NCc4cnccn4)cc3)oc2C)cc1 | 204 to 206 °C
Cc1ccc(S(=O)(=O)Cc2nc(-c3ccc(C(=O)Nc4ccncc4)cc3)oc2C)cc1 | 229 to 231 °C
